ASSAY_DETAILS: Pharmacokinetics of PYY analogues in mice
Format: in vivo
SETTINGS: C57BL/6J, mouse, plasma, ip, 1 mg/kg
Where a SMILES comes first, the peptide text is derived from it. [ ]: non-standard residue; d: D form. The star is where a group is joined. Cha = N[C@@H](CC1CCCCC1)C(=O)O; Aib = CC(C)(N)C(=O)O; Bz = O=C(c1ccccc1)*
ASSAY_ENDPOINT: Tmax (min)
Report the value in min with no unit label.

q: Please report the measured Tmax for CC(C)C[C@H](NC(=O)[C@H](CC(N)=O)NC(=O)[C@H](CC1CCCCC1)NC(=O)[C@H](CC1CCCCC1)NC(=O)[C@H](Cc1cnc[nH]1)NC(=O)[C@H](CCCNC(=N)N)NC(=O)c1ccccc1)C(=O)NC(C)(C)C(=O)N[C@H](C(=O)N[C@@H](CCCNC(=N)N)C(=O)N[C@@H](CCC(N)=O)C(=O)N[C@@H](CCCNC(=N)N)C(=O)N[C@@H](CC1CCCCC1)C(N)=O)[C@@H](C)O [Compound 21, benzoyl-[Cha^27,28,36,Aib^31]PYY(25–36)] (Bz-RH[Cha][Cha]NL[Aib]TRQR[Cha]-NH2)
a: 15

---

As a worked illustration, we turn to IC50 data collected for human Y2R (Homo sapiens, UniProt P49146).
Where a SMILES comes first, the peptide text is derived from it. [ ]: non-standard residue; d: D form. The star is where a group is joined. Phe(4-F) = N[C@@H](Cc1ccc(F)cc1)C(=O)O; Cyclohexanecarbonyl = O=C(C1CCCCC1)*; Cha = N[C@@H](CC1CCCCC1)C(=O)O; Aib = CC(C)(N)C(=O)O; Bz = O=C(c1ccccc1)*
Report the value in nM with no unit label.

q: Fill in: IC50 on human Y2R (Homo sapiens, UniProt P49146), entry CC[C@H](C)[C@H](NC(=O)[C@H](CC1CCCCC1)NC(=O)[C@H](Cc1c[nH]cn1)NC(=O)[C@H](CCCNC(=N)N)NC(=O)c1ccccc1)C(=O)N[C@@H](CC(N)=O)C(=O)N[C@@H](Cc1ccc(F)cc1)C(=O)N[C@H](C(=O)N[C@H](C(=O)N[C@@H](CCCNC(=N)N)C(=O)N[C@@H](CCC(N)=O)C(=O)N[C@@H](CCCNC(=N)N)C(=O)N[C@@H](CC1CCCCC1)C(N)=O)[C@@H](C)O)[C@@H](C)CC [Compound 6] (Bz-RH[Cha]IN[Phe(4-F)]ITRQR[Cha]-NH2)
Sequence (P49146 whole entry): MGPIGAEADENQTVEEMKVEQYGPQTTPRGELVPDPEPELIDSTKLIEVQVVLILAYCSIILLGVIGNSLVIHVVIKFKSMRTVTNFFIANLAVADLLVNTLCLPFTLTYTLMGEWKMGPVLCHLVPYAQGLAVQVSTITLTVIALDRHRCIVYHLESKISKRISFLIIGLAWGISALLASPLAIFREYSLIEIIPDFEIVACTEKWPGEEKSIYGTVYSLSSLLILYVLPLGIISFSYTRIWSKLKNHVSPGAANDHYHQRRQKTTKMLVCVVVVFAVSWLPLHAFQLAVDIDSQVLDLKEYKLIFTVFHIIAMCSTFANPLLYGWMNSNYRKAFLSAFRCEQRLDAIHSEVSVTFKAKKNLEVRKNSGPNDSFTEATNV
a: 11

q: Fill in: IC50 on human Y2R (Homo sapiens, UniProt P49146), entry CC(C)C[C@H](NC(=O)[C@H](CC(N)=O)NC(=O)[C@H](Cc1c[nH]c2ccccc12)NC(=O)[C@H](CC1CCCCC1)NC(=O)[C@H](Cc1c[nH]cn1)NC(=O)[C@H](CCCNC(=N)N)NC(=O)c1ccccc1)C(=O)NC(C)(C)C(=O)N[C@H](C(=O)N[C@@H](CCCNC(=N)N)C(=O)N[C@@H](CCC(N)=O)C(=O)N[C@@H](CCCNC(=N)N)C(=O)N[C@@H](CC1CCCCC1)C(N)=O)[C@@H](C)O [Compound 18] (Bz-RH[Cha]WNL[Aib]TRQR[Cha]-NH2)
a: 6.4

q: Fill in: IC50 on human Y2R (Homo sapiens, UniProt P49146), entry CC[C@H](C)[C@H](NC(=O)[C@H](Cc1c[nH]c2ccccc12)NC(=O)[C@H](CC(N)=O)NC(=O)[C@H](CC1CCCCC1)NC(=O)[C@H](CC1CCCCC1)NC(=O)[C@H](Cc1c[nH]cn1)NC(=O)[C@H](CCCNC(=N)N)NC(=O)C1CCCCC1)C(=O)N[C@H](C(=O)N[C@@H](CCCNC(=N)N)C(=O)N[C@@H](CCC(N)=O)C(=O)N[C@@H](CCCNC(=N)N)C(=O)N[C@@H](CC1CCCCC1)C(N)=O)[C@@H](C)O [Compound 14] (Cyclohexanecarbonyl-RH[Cha][Cha]NWITRQR[Cha]-NH2)
a: 15
